system: Staphylococcus aureus; experiment: Antibacterial activity against Staphylococcus aureus 209P JC-1; assay type: functional
Measured MIC accompanies every entry in the list below.
parameter: MIC (µg/mL)

input_smiles=CNC[C@@H]1CC[C@@H](N)[C@@H](O[C@H]2[C@@H](O)[C@@H](O[C@H]3O[C@H](CO)[C@H](O)[C@H](N)[C@H]3O)[C@H](NC(=O)[C@@H](O)CCN)C[C@@H]2N)O1 reported_value=0.13
input_smiles=NCC[C@H](O)C(=O)N[C@@H]1C[C@H](N)[C@@H](O[C@H]2O[C@H](CN)CC[C@H]2N)[C@@H](Cl)[C@H]1O[C@H]1O[C@H](CO)[C@H](O)[C@H](N)[C@H]1O reported_value=0.13
input_smiles=NCC[C@H](O)C(=O)N[C@@H]1C[C@H](N)[C@@H](O[C@H]2O[C@H](CN)CC[C@H]2N)[C@@H](O)[C@H]1O[C@H]1O[C@H](CO)[C@H](O)[C@H](N)[C@H]1O reported_value=0.06

---

Measured MIC accompanies every entry in the list below.
system: Staphylococcus aureus; experiment: Antibacterial activity against Staphylococcus aureus 209P JC-1; format: functional
parameter: MIC (mg/L)

input_smiles=NCC[C@H](O)C(=O)N[C@@H]1C[C@H](N)[C@@H](O[C@H]2O[C@H](CN)CC[C@H]2N)[C@H](O)[C@H]1O[C@H]1O[C@H](CO)[C@H](N)[C@H](N)[C@H]1O parameter=MIC reported_value=4
input_smiles=NCC[C@H](O)C(=O)N[C@@H]1C[C@H](N)[C@@H](O[C@H]2O[C@H](CN)CC[C@H]2N)[C@H](O)[C@H]1O[C@H]1O[C@H](CO)[C@@H](O)[C@H](N)[C@H]1O parameter=MIC reported_value=0.06
input_smiles=[N-]=[N+]=N[C@@H]1[C@H](N)[C@@H](O)[C@@H](O[C@@H]2[C@@H](O)[C@H](O[C@H]3O[C@H](CN)CC[C@H]3N)[C@@H](N)C[C@H]2NC(=O)[C@@H](O)CCN)O[C@@H]1CO parameter=MIC reported_value=0.13
input_smiles=NCC[C@H](O)C(=O)N[C@@H]1C[C@H](N)[C@@H](O[C@H]2O[C@H](CN)CC[C@H]2N)[C@@H](N)[C@H]1O[C@H]1O[C@H](CO)[C@H](O)[C@H](N)[C@H]1O parameter=MIC reported_value=0.25
input_smiles=NCC[C@H](O)C(=O)N[C@@H]1C[C@H](N)[C@@H](O[C@H]2O[C@H](CN)CC[C@H]2N)[C@H](O)[C@H]1O[C@H]1O[C@H](CO)[C@H](O)[C@H](N)[C@H]1O parameter=MIC reported_value=0.13
input_smiles=NCC[C@H](O)C(=O)N[C@@H]1C[C@H](N)[C@@H](O[C@H]2O[C@H](CN)CC[C@H]2N)[C@@H](F)[C@H]1O[C@H]1O[C@H](CO)[C@H](O)[C@H](N)[C@H]1O parameter=MIC reported_value=0.06

---

system: Staphylococcus aureus; assay: Antibacterial activity against Staphylococcus aureus 209P JC-1; assay type: functional
parameter: MIC (µg/mL)

input_smiles=NCC[C@H](O)C(=O)N[C@@H]1C[C@H](N)[C@@H](O[C@H]2O[C@H](CN)CC[C@H]2N)[C@H](O)[C@H]1O[C@H]1O[C@@H](CO)[C@@H](O)[C@H](N)[C@H]1O study_target="Staphylococcus aureus" reported_value=0.06
input_smiles=[N-]=[N+]=N[C@H]1[C@@H](O[C@H]2O[C@H](CO)[C@H](O)[C@H](N)[C@H]2O)[C@H](NC(=O)[C@@H](O)CCN)C[C@H](N)[C@H]1O[C@H]1O[C@H](CN)CC[C@H]1N study_target="Staphylococcus aureus" reported_value=0.25
input_smiles=NCC[C@H](O)C(=O)N[C@@H]1C[C@H](N)[C@@H](O[C@H]2O[C@H](CN)CC[C@H]2N)[C@H](O)[C@H]1O[C@H]1O[C@H](CO)C[C@H](N)[C@H]1O study_target="Staphylococcus aureus" reported_value=0.13
